Assay: inhibitors of TNFa-induced NFkB p65 translocation, primary screen, imaging, HUVEC, MLSMR starter and 10KST1 sets (AID 438);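 note: compound added about 3h40 before a 20 min TNFalpha stimulation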;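 for inhibition: signal is the nuclear over cytoplasmic p65 intensity ratio per well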
Details: HUVEC TNFa-induced p65 nuclear translocation; at 2 µM, stronger effect = higher value, 0% TNFa-plus-vehicle, 100% no-TNFa wells
Catalogue of molecules with associated inhibition
Give just the numeric value; % need not be written.

MOLECULE	READING_UNIT	inhibition
Cc1c(C(=O)N2CCN(c3ccccc3)CC2)sc2ncnc(N3CCN(c4ccccc4)CC3)c12	%	6.2
Cc1nc2scc(-c3cccs3)c2c(=O)n1-n1cccc1	%	10.6
CC(=O)Nc1c(-c2ccc(F)cc2)nc2ccccn12	%	-4.7
COc1ccccc1CC1(C)NC(=O)N(CC(=O)Nc2cc(C)on2)C1=O (stereo not drawn)	%	-14.8
CCOC(=O)c1ccc(NC(=O)c2ccc(NS(C)(=O)=O)cc2)cc1	%	-4.3

Look at this molecule and give its reported inhibition. COC(=O)c1cn(NC(=O)c2cccnc2)c(=O)c2ccccc12 2.5

Endpoint output: inhibition of O=C(CCc1nc2ccccc2s1)OCC(=O)N1CCN(C(=O)c2ccco2)CC1 . Value? -7.6

Suppose we examine the molecule O=C(Nc1cccc(Cl)c1)N1CCN(Cc2ccccc2)CC1 ; what inhibition value has been reported? 1.3

# lookup: inhibition of Nc1nc(SCc2nc3scc(-c4cccs4)c3c(=O)[nH]2)n[nH]1 3.8

// lookup inhibition for O=C(NC1CCCC1)C1CC1c1ccccc1 (stereo not drawn) -4.3

Would you kindly share the measured inhibition for Cc1cc(C)n2nc[n+](C)c2n1 ? -12.9

Entry CC(=O)Nc1c(O)nc(SCC(=O)Nc2nnc(CC(C)C)s2)[nH]c1=O has what inhibition? -3.3

So what's the measured inhibition for this one? Cc1cccc(Nc2ncc3c(n2)CC(c2ccco2)CC3=O)c1 (stereo not drawn) -1

* * *

Assay: inhibitors of TNFa-induced NFkB p65 translocation, primary screen, imaging, HUVEC, MLSMR starter and 10KST1 sets (AID 438);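 note: compound added about 3h40 before a 20 min TNFalpha stimulation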
Conditions: HUVEC TNFa-induced p65 nuclear translocation; measured here: nuclei count (cytotoxicity indicator), at 2.08 µM
MEASURED_ENDPOINT: cell count

Solved cases (4 shown):
COMPOUND	TEST_VALUE
CCOC(=O)N1CCN(C(=O)COc2ccc(S(=O)(=O)NC3CCCCC3)cc2C)CC1	536
COc1ccc(-c2noc(CSc3nc(N)c(-c4ccccc4)c(=O)[nH]3)n2)cc1OC	338
COc1ccc(C(=O)c2ccc(OC)c(N)c2)cc1N	298
O=C(NCC1COc2ccccc2O1)C1CCCN(S(=O)(=O)c2cnc[nH]2)C1 (stereo not given)	617

Suppose we examine the compound COC(=O)Cn1c(CN2CCN(c3ccccc3F)CC2)nc2c1c(=O)n(C)c(=O)n2C ; what cell count value has been reported? 633

* * *

In this section we review reported fluorescence slope values for a set of compounds.
Target: Voltage-gated potassium channel subunit beta-2 (Rattus norvegicus)
Test: inhibitors of rat Kvbeta2 reductase activity – biochemical, NADPH fluorescence, primary screen (AID 622);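 note: slope of raw intensity against log time taken from 70 to 1610 s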
Settings: recombinant KvBeta, 4-cyanobenzaldehyde reduction, at 10 µM, stronger effect = higher value
Respond using a number only.

Worked examples follow.
COMPOUND	TARGET_ENTITY	fluorescence slope
CCC(=O)N1CCc2cc(S(=O)(=O)CCC(=O)Nc3ccc(F)c(F)c3)ccc21	Voltage-gated potassium channel subunit beta-2 (Rattus norvegicus)	-0.423
CCc1ccc(NC(=O)CSc2nnc(Cc3cccn3C)n2-c2ccc(OC)cc2)cc1	Voltage-gated potassium channel subunit beta-2 (Rattus norvegicus)	-0.609
COc1cccc(/C=N/n2c(-c3ccco3)nc3ccccc3c2=O)c1	Voltage-gated potassium channel subunit beta-2 (Rattus norvegicus)	-0.293
CCOc1cc(C(=O)N(C)c2ccccc2)cc(OCC)c1OCC	Voltage-gated potassium channel subunit beta-2 (Rattus norvegicus)	-0.368
CC(C)CC(=O)Nc1ccccc1-c1nnn(CC(=O)N2CCOCC2)n1	Voltage-gated potassium channel subunit beta-2 (Rattus norvegicus)	-0.497

Returns the measured fluorescence slope for the input compound. Input: c1ccc(CN2CCN(CCCNc3ccc4nnc(-c5ccccc5)n4n3)CC2)cc1 -0.63

What value of fluorescence slope has been reported for the following compound? Cn1cc(-c2nc3ccccc3[nH]2)c2ccccc21 -0.416

So what's the measured fluorescence slope for this one? COc1cccc(C(=O)Nc2ccc(C)cc2)c1 -0.367

Look at this compound and give its reported fluorescence slope. COc1ccc(OC)c(NC(=O)CSc2nnc(Cc3cccn3C)n2-c2ccc(F)cc2)c1 -0.609

* * *

Experiment: reduction of polyQ htt aggregates in cells – imaging, exon1htt(103Q)mCFP cells, high-content imaging, primary screen (AID 483);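 note: compound exposure lasted 3 days before fixation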
Conditions: exon1htt(103Q)mCFP cell line, aggregate imaging, at 2 µM; stronger effect = higher value
Reported inhibition of aggregation values for a set of molecules
Field format: number, assumed %, no unit text.

MOLECULE	inhibition of aggregation / %
CC1CCCCN1S(=O)(=O)c1ccc(NC(=O)c2cccs2)cc1 (configuration not stated)	25.4
Cc1nc(C)c(C(=O)C2=C(O)C(=O)N(CCCn3ccnc3)C2c2ccccc2)s1 (configuration not stated)	11.4
COc1ccc(N2CCN(C(=O)Cc3ccc(-n4c(=O)[nH]c5ccccc5c4=O)cc3)CC2)cc1	-41.3
CCOC(=O)N1CCC(NC(=O)CSCc2nc(-c3cccc(OC)c3)oc2C)CC1	-9
Cc1ccc2nc(-c3ccccn3)cc(C(=O)N3CCN(c4ncccn4)CC3)c2c1	0
Cc1cc(C)n(-c2cc(N3CCOCC3)nc(-c3ccccc3)n2)n1	-20.5
Cc1cc(C)c2c(n1)nn1c(N3CCOCC3)cc(C)nc21	5.7
CC(NC(=O)C1CC1)C(c1cccs1)N1CCN(c2ccccc2)CC1 (configuration not stated)	-7.2

Which value of inhibition of aggregation has been reported for COc1cc2c(=O)n(Cc3ccccc3)c(=O)n(CC(=O)NCc3ccco3)c2cc1OC in the records? -3.1

# get_value(readout='inhibition of aggregation', item= O=C(OCC(=O)c1ccccc1Br)c1ccccn1 ) -3.7

Look up inhibition of aggregation for this molecule: COc1ccc(CNc2ccc(C(=O)O)cc2)cc1 -17.2

Recorded inhibition of aggregation of COc1ccc(Cc2nc(-c3ccc(NC(=O)c4cccnc4)cc3)no2)cc1 , please. 23.4

Endpoint output: inhibition of aggregation of CCCCC(O)(C(NC=O)C(=O)OC)C(F)(F)F (configuration not stated) . Value? 12.7

// returns reported inhibition of aggregation for input O=C(CN(CCc1ccccc1)C(=O)CN1C(=O)COc2ccccc21)NCc1ccco1 -4.1

Name the recorded inhibition of aggregation for O=C(OCCN1C(=O)c2ccccc2C1=O)c1ccc(S(=O)(=O)N2CCCCCC2)cc1 . -7.2

Could you share which inhibition of aggregation value was measured for COc1ccc(-n2c(SCC#N)nc3ccccc3c2=O)cc1 ? -15.4

Which inhibition of aggregation is reported for this molecule? COc1ccc(N2CCN(CCCNC(=O)C3CCCN(S(=O)(=O)c4cnc[nH]4)C3)CC2)cc1 (configuration not stated) -29.9

Looking for the measured inhibition of aggregation of CC1(C)CNC(=O)CC(C)(C)N1O , can you help? 7.9

Give its inhibition of aggregation value. Item: Cc1cnn(Cc2ccccc2)c1N -4.6

Fill blank: measured inhibition of aggregation of the molecule COc1ccc(C(=O)N2CCN(c3nc4cc(C)ccc4cc3C#N)CC2)c(OC)c1 is ____. -9.9

Look up inhibition of aggregation: O=C(C1CC1)N1CCC(c2nc(-c3ccc(S(=O)(=O)NCC4CCCO4)cc3)no2)CC1 (configuration not stated) -20.7

Given the molecule O=C(CCCC(=O)OCC(=O)NC1CCCC1)Nc1ccccn1 , what is its reported inhibition of aggregation? 1.1

* * *

Assay: reduction of polyQ htt aggregates in cells – imaging, exon1htt(103Q)mCFP cells, high-content imaging, primary screen (AID 483);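 note: compound exposure lasted 3 days before fixation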
Conditions: exon1htt(103Q)mCFP cell line, aggregate imaging, at 2 µM; stronger effect = higher value
MEASURED_ENDPOINT: inhibition of aggregation (%)
The answer is to be given in %; state only the numeric part.

// worked examples, inhibition of aggregation included
COMPOUND	inhibition of aggregation / %
CN(C)S(=O)(=O)c1ccc(C(=O)NCc2cccs2)cc1	6.5
COc1cccc(-c2nnc(NC(=O)c3ccccc3Br)o2)c1	-5.7
Cc1ccc(C(C(=O)NC2CCCCC2)N2CCOCC2)cc1 (stereo not drawn)	-13
CCOC(=O)C(C(=O)OCC)C(C)C#CCN1CCCCC1 (stereo not drawn)	-11.4
O=C(OCn1nnc2ccccc2c1=O)c1cc2ccccc2o1	19.5

Entry O=C(COC(=O)c1cccc(S(=O)(=O)N2CCc3ccccc32)c1)NC1CCS(=O)(=O)C1 (stereo not drawn) : reported inhibition of aggregation = ? -6.2

Endpoint output: inhibition of aggregation of COc1ccc(C(=O)N2CCN(C3CCC(c4ccccc4)CC3)CC2)cc1OC (stereo not drawn) . Value? 20.2

Look at this compound and give its reported inhibition of aggregation. COc1ccc(C)cc1-n1c(N)c(C#N)c(C#N)c1-c1ccc(OC)c(OC)c1OC 16.9
